test: Cytotoxicity against human 518A2 cells after 96 hrs by SRB assay; type: functional, cell-based
IC50 strictly less than 3 µmol = Fulfilled. Otherwise Not fulfilled.

>>> assigned_label("CC1(C)[C@H](O)CC[C@]2(C)[C@H]3C(=O)C=C4[C@@H]5C[C@@](C)(C(=O)O)CC[C@]5(C)CC[C@@]4(C)[C@]3(C)CC[C@@H]12")
"Not fulfilled"
>>> assigned_label("CC1(C)C(=O)CC[C@]2(C)[C@H]3C(=O)C=C4[C@@H]5C[C@@](C)(C(=O)O)CC[C@]5(C)CC[C@@]4(C)[C@]3(C)CC[C@@H]12")
"Not fulfilled"
>>> assigned_label("COC(=O)[C@@]1(C)CC[C@]2(C)CC[C@]3(C)C(=CC(=O)[C@@H]4[C@@]5(C)CC[C@@H](N)C(C)(C)[C@@H]5CC[C@]43C)[C@@H]2C1")
"Fulfilled"
>>> assigned_label("COC(=O)[C@@]1(C)CC[C@]2(C)CC[C@]3(C)C(=CC(=O)[C@@H]4[C@@]5(C)CC/C(=N\\O)C(C)(C)[C@@H]5CC[C@]43C)[C@@H]2C1")
"Not fulfilled"
>>> assigned_label("COC(=O)[C@@]1(C)CC[C@]2(C)CC[C@]3(C)C(=CC(=O)[C@@H]4[C@@]5(C)CCC(=O)C(C)(C)[C@@H]5CC[C@]43C)[C@@H]2C1")
"Not fulfilled"
>>> assigned_label("CCOC(=O)[C@@]1(C)CC[C@]2(C)CC[C@]3(C)C(=CC(=O)[C@@H]4[C@@]5(C)CCC(=O)C(C)(C)[C@@H]5CC[C@]43C)[C@@H]2C1")
"Not fulfilled"
>>> assigned_label("COC(=O)[C@@]1(C)CC[C@]2(C)CC[C@]3(C)C(=CC(=O)[C@@H]4[C@@]5(C)CC[C@H](N)C(C)(C)[C@@H]5CC[C@]43C)[C@@H]2C1")
"Fulfilled"
>>> assigned_label("CCCCCCCCO/N=C1\\CC[C@]2(C)[C@H]3C(=O)C=C4[C@@H]5C[C@@](C)(C(=O)OC)CC[C@]5(C)CC[C@@]4(C)[C@]3(C)CC[C@H]2C1(C)C")
"Not fulfilled"
>>> assigned_label("COC(=O)[C@@]1(C)CC[C@]2(C)CC[C@]3(C)C(=CC(=O)[C@@H]4[C@@]5(C)CC[C@H](NC(=O)[C@H](C)N)C(C)(C)[C@@H]5CC[C@]43C)[C@@H]2C1")
"Not fulfilled"
>>> assigned_label("CCOC(=O)[C@@]1(C)CC[C@]2(C)CC[C@]3(C)C(=CC(=O)[C@@H]4[C@@]5(C)C[C@H](F)[C@@H](O)C(C)(C)[C@@H]5CC[C@]43C)[C@@H]2C1")
"Not fulfilled"
>>> assigned_label("C=C(C)[C@@H]1CC[C@]2(C)[C@H](C(=O)C=C3[C@@H]4C[C@@](C)(C(=O)OCC)CC[C@]4(C)CC[C@]32C)[C@@]1(C)CCC(=O)OCC")
"Not fulfilled"
